assayTarget: affinity purified β2GPI-dependent antiphospholipid antibody
protocolDetails: Competitive inhibition ELISA: recombinant β2GPI proteins compete for antibody binding to coated full length recombinant β2GPI
Parameters: species or system human
conditionContext: Ab 7104; read-out: 50% (concentration to give 50% inhibition)
Description: Microtiter plates (MaxiSorp™, Nalge Nunc International, Denmark) were coated with 50 μl of full length recombinant β2GPI at 10 μg/ml in 0.1 M bicarbonate, pH 9.5, incubated overnight at 4° C., washed three times with 0.15 M PBS, pH 7.2, and blocked for one hour at room temperature with 75 μl of 2% Non-fat Dried Milk (Carnation, 2% NFDM). […] The Optical Density, at 550 nm, was determined by reading the plates in a microplate autoreader (Bio-Teck Instruments, model EL3 11). […]
readout: pIC50
Interpret pIC50 as the negative base-10 log of the concentration measured in mol/L.

| molecule | pIC50 |
| --- | --- |
| 1234-: recombinant β2GPI deletion mutant with domains 1, 2, 3, 4 (protein) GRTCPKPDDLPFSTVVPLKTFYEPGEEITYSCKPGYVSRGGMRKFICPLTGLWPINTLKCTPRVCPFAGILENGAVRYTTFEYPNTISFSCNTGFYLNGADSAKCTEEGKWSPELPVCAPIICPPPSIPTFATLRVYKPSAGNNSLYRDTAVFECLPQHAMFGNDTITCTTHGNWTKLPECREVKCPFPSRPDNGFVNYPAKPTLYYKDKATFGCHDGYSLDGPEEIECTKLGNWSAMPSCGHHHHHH | 6.15 |
| 1----: recombinant β2GPI protein with domain 1 only (SEQ ID NO:4 region), His6 tail (protein) GRTCPKPDDLPFSTVVPLKTFYEPGEEITYSCKPGYVSRGGMRKFICPLTGLWPINTLKCTPRVGHHHHHH | 6.10 |

# ---- query molecule ----
Return pIC50 (reported value) for this molecule: 123--: recombinant β2GPI deletion mutant with domains 1, 2, 3 (protein) GRTCPKPDDLPFSTVVPLKTFYEPGEEITYSCKPGYVSRGGMRKFICPLTGLWPINTLKCTPRVCPFAGILENGAVRYTTFEYPNTISFSCNTGFYLNGADSAKCTEEGKWSPELPVCAPIICPPPSIPTFATLRVYKPSAGNNSLYRDTAVFECLPQHAMFGNDTITCTTHGNWTKLPECGHHHHHH
6.00

meta.source: patent US6858210B1
